Documented Ka across a set of binders
# test-target: T1, Rnd1 GTPase (residues 5-200), loaded with GMPPNP (UniProt Q92730 5-200)
# T1 sequence (looked up): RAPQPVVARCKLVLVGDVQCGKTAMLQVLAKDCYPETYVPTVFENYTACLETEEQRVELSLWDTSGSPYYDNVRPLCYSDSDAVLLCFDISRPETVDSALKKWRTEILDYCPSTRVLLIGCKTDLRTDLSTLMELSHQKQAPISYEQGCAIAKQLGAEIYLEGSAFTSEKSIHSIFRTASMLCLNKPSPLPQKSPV
# measurement-protocol: ITC

# binder, Ka [M⁻¹]
records = [
    ("plexin-A2 Rho GTPase binding domain (RBD), residues 1490-1600 (domain or fragment, human, UniProt O75051 1490-1600, looked up) LIRQQIEYKTLILNCVNPDNENSPEIPVKVLNCDTITQVKEKILDAVYKNVPYSQRPRAVDMDLEWRQGRIARVVLQDEDITTKIEGDWKRLNTLMHYQVSDRSVVALVPK", 140000),
    ("plexin-B1 RBD L1815Y (domain or fragment) YRPLTLNALLAVGPGAGEAQGVPVKVLDCDTISQAKEKMLDQLYKGVPLTQRPDPRTLDVEWRSGVAGHYILSDEDVTSEVQGLWRRLNTLQHYKVPDGATVALVPC", 70000),
    ("plexin-B1 Rho GTPase binding domain (RBD), residues 1746-1852 (domain or fragment, human, UniProt O43157 1746-1852, looked up) YRPLTLNALLAVGPGAGEAQGVPVKVLDCDTISQAKEKMLDQLYKGVPLTQRPDPRTLDVEWRSGVAGHLILSDEDVTSEVQGLWRRLNTLQHYKVPDGATVALVPC", 180000),
    ("plexin-D1 RBD Y1618L (domain or fragment) AKPRNLNVSFQGCGMDSLSVRAMDTDTLTQVKEKILEAFCKNVPYSQWPRAEDVDLEWFASSTQSLILRDLDDTSVVEDGRKKLNTLAHYKIPEGASLAMSLIDKKDNTLGRVKDLDTEKYFHLVL", 190000),
]
